Species: Rattus norvegicus
Assay: DrugMatrix - Regimen: Daily Repeat
Assay type: toxicity, organism-based, Sprague-Dawley
Design: regimen Daily Repeat, gender Male, age 6-8 weeks
Settings: in vivo, po, 0 mg/kg, 72 h, tissue Blood, route oral GAVAGE, dose level Control, time 3 day, […]
Parameter: NUCLEATED RED BLOOD CELLS. Scope: all listed entries.

Consider the reported NUCLEATED RED BLOOD CELLS for these compounds:
CCCCC(=O)N(Cc1ccc(-c2ccccc2-c2nnn[nH]2)cc1)[C@H](C(=O)O)C(C)C : 0.33 /100WBC
CC(C)c1c(C(=O)Nc2ccccc2)c(-c2ccccc2)c(-c2ccc(F)cc2)n1CC[C@@H](O)C[C@@H](O)CC(=O)O : 0 /100WBC
CC(=O)Oc1ccccc1C(=O)O : 0 /100WBC
Cc1ccc(C)c(OCCCC(C)(C)C(=O)O)c1 : 0 /100WBC
CS(=O)(=O)Nc1ccc([N+](=O)[O-])cc1Oc1ccccc1 [NIMESULIDE] : 0 /100WBC

Inquiry: GET /values?readout=NUCLEATED RED BLOOD CELLS&item= ClC(Cl)(Cl)Cl [CARBON TETRACHLORIDE]
Reply text: 0.17 /100WBC

Inquiry: Look at this compound and give its reported NUCLEATED RED BLOOD CELLS. CCc1ccc(CCOc2ccc(CC3SC(=O)NC3=O)cc2)nc1 (stereo not drawn)
Reply text: 0 /100WBC

Inquiry: Form field: reported NUCLEATED RED BLOOD CELLS of "O=c1c(-c2ccc(O)cc2)coc2cc(O)cc(O)c12"
Reply text: 0 /100WBC

====

Species on record: Rattus norvegicus
Experiment: DrugMatrix - Regimen: Daily Repeat
Assay type: toxicity, organism-based, Sprague-Dawley
Set-up: regimen Daily Repeat, gender Male, age 6-8 weeks
Conditions: in vivo, iv, 0 mg/kg, 120 h, tissue Plasma, dose level Control, time 5 day, vehicle 100 % SALINE
Listed here: items and their measured ALANINE AMINOTRANSFERASE.
Write the answer as a number in u/L, unit excluded.

Here is how some compounds turned out for ALANINE AMINOTRANSFERASE.
N=C(N)c1ccc(OCCCCCOc2ccc(C(=N)N)cc2)cc1 [PENTAMIDINE] : 49.83
COc1cccc2c1C(=O)c1c(O)c3c(c(O)c1C2=O)C[C@@](O)(C(C)=O)C[C@@H]3O[C@H]1C[C@H](N)[C@H](O)[C@H](C)O1 [DAUNORUBICIN] : 51
O=c1[nH]c(=O)n([C@H]2C[C@H](O)[C@@H](CO)O2)cc1F [FLOXURIDINE] : 58.67
C[N+](C)(C)CCOC(=O)CCC(=O)OCC[N+](C)(C)C.[Cl-].[Cl-] [SUCCINYLCHOLINE CHLORIDE] : 49.83

We now examine a further compound.
Inquiry: Item under review: O=C(O)P(=O)(O)O [FOSCARNET] . Reported ALANINE AMINOTRANSFERASE?
Reply text: 49.17

====

Organism: Rattus norvegicus
Experiment: DrugMatrix - Regimen: Daily Repeat
Type: toxicity, organism-based, Sprague-Dawley
Parameters: regimen Daily Repeat, gender Male, age 6-8 weeks
Details: in vivo, po, 2 mg/kg, 72 h, tissue Blood, route oral GAVAGE, dose level High, time 3 day, vehicle 100 % SALINE
ENDPOINT: ABSOLUTE EOSINOPHIL (cells/µL)
The reply should contain only the number, in cells/µL.

Inquiry: Any idea what ABSOLUTE EOSINOPHIL was measured for "COc1cccc2c1C(=O)c1c(O)c3c(c(O)c1C2=O)C[C@@](O)(C(C)=O)C[C@@H]3O[C@H]1C[C@H](N)[C@H](O)[C@H](C)O1" ?
Reply text: 210
